Assay: Cytotoxicity against human HuH5.2 cells after 1.5 hrs by MTS assay
Assay type: cell-based, Huh-5-2
Property name: CC50 at 1.5 h

{"Compound structure string": "CCCCn1cc(C2=NS(=O)(=O)c3ccccc3N2)c2cc(Br)ccc21", "Observed measurement": "37.2 µM"}
{"Compound structure string": "C=CCn1cc(C2=NS(=O)(=O)c3ccccc3N2)c2ccccc21", "Observed measurement": "> 50 µM"}
{"Compound structure string": "CC(C)CCn1cc(C2=NS(=O)(=O)c3ccccc3N2)c2cc(Br)ccc21", "Observed measurement": "> 50 µM"}

----------
Test system: Hepatitis C virus genotype 4
Assay: Inhibition of Hepatitis C virus genotype 4 NS5B polymerase at 10 uM
Active and inactive are the calls of the source. The rule behind the calls is not given here.
Property name: inhibition

{"Compound structure string": "CCCn1cc(C2=NS(=O)(=O)c3cc(I)ccc3N2)c2ccccc21", "Tested target": "Hepatitis C virus genotype 4", "Observed measurement": "inactive"}
{"Compound structure string": "CS(=O)(=O)Nc1ccc2c(c1)S(=O)(=O)N=C(c1cn(Cc3ccccc3)c3ccccc13)N2", "Tested target": "Hepatitis C virus genotype 4", "Observed measurement": "60%"}
{"Compound structure string": "CC(C)CCn1cc(C2=NS(=O)(=O)c3cc(Br)cnc3N2)c2ccccc21", "Tested target": "Hepatitis C virus genotype 4", "Observed measurement": "inactive"}
{"Compound structure string": "Cc1c(C2=NS(=O)(=O)c3ccccc3N2)c2ccccc2n1Cc1ccccc1", "Tested target": "Hepatitis C virus genotype 4", "Observed measurement": "inactive"}
{"Compound structure string": "CCCn1cc(C2=NS(=O)(=O)c3cc(Br)ccc3N2)c2ccccc21", "Tested target": "Hepatitis C virus genotype 4", "Observed measurement": "inactive"}
{"Compound structure string": "CCCCn1cc(C2=NS(=O)(=O)c3ccccc3N2)c2cc(Br)ccc21", "Tested target": "Hepatitis C virus genotype 4", "Observed measurement": "inactive"}
{"Compound structure string": "CC(C)CCn1cc(C2=NS(=O)(=O)c3ccccc3N2)c2ccccc21", "Tested target": "Hepatitis C virus genotype 4", "Observed measurement": "inactive"}
{"Compound structure string": "O=S1(=O)N=C(c2cn(Cc3ccccc3)c3ccc(Br)cc23)Nc2ccccc21", "Tested target": "Hepatitis C virus genotype 4", "Observed measurement": "inactive"}
{"Compound structure string": "O=S1(=O)N=C(c2cn(Cc3ccccc3)c3ccccc23)Nc2ccccc21", "Tested target": "Hepatitis C virus genotype 4", "Observed measurement": "inactive"}
{"Compound structure string": "CC(C)CCn1cc(C2=NS(=O)(=O)c3cc(NS(C)(=O)=O)ccc3N2)c2ccccc21", "Tested target": "Hepatitis C virus genotype 4", "Observed measurement": "60%"}

----------
System: Hepatitis C virus
Assay: Inhibition of Hepatitis C virus genotype 1b NS5B polymerase
Parameters: species or system Hepatitis C virus subtype 1b
pIC50: −log10 of the molar value.
Property name: pIC50

{"Molecule": "CC(C)Nn1c(=O)c(C2=NS(=O)(=O)c3ccccc3N2)c(O)c2ccccc21", "Property name": "pIC50", "Observed measurement": 6.19}
{"Molecule": "O=c1c(C2=NS(=O)(=O)c3ccccc3N2)c(O)c2ccccc2n1NCc1nccs1", "Property name": "pIC50", "Observed measurement": 6.17}
{"Molecule": "CCCC(CCC)Nn1c(=O)c(C2=NS(=O)(=O)c3ccccc3N2)c(O)c2ccccc21", "Property name": "pIC50", "Observed measurement": 5.74}
{"Molecule": "O=c1c(C2=NS(=O)(=O)c3ccccc3N2)c(O)c2ccccc2n1NCc1ccccc1", "Property name": "pIC50", "Observed measurement": 6.89}
{"Molecule": "O=c1c(C2=NS(=O)(=O)c3ccccc3N2)c(O)c2ccccc2n1NCc1ccoc1", "Property name": "pIC50", "Observed measurement": 6.88}
{"Molecule": "Cc1ccccc1CNn1c(=O)c(C2=NS(=O)(=O)c3ccccc3N2)c(O)c2ccccc21", "Property name": "pIC50", "Observed measurement": 6.32}
{"Molecule": "CC(Nn1c(=O)c(C2=NS(=O)(=O)c3ccccc3N2)c(O)c2ccccc21)c1ccccc1 (stereo unspecified)", "Property name": "pIC50", "Observed measurement": 5.83}
{"Molecule": "O=c1c(C2=NS(=O)(=O)c3ccccc3N2)c(O)c2ccccc2n1NCC1CCCCC1", "Property name": "pIC50", "Observed measurement": 6.82}
{"Molecule": "O=c1c(C2=NS(=O)(=O)c3ccccc3N2)c(O)c2ccccc2n1NCc1cccc(Br)c1", "Property name": "pIC50", "Observed measurement": 7.12}
{"Molecule": "O=c1c(C2=NS(=O)(=O)c3ccccc3N2)c(O)c2ccccc2n1NCc1ccco1", "Property name": "pIC50", "Observed measurement": 6.52}
{"Molecule": "O=c1c(C2=NS(=O)(=O)c3ccccc3N2)c(O)c2ccccc2n1NC1CCCCCC1", "Property name": "pIC50", "Observed measurement": 6.66}
{"Molecule": "O=c1c(C2=NS(=O)(=O)c3ccccc3N2)c(O)c2ccccc2n1NC1CCCC1", "Property name": "pIC50", "Observed measurement": 6.82}
{"Molecule": "CC(C)(C)CCNn1c(=O)c(C2=NS(=O)(=O)c3ccccc3N2)c(O)c2ccccc21", "Property name": "pIC50", "Observed measurement": 6.87}
{"Molecule": "O=c1c(C2=NS(=O)(=O)c3ccccc3N2)c(O)c2ccccc2n1NCC1CC1", "Property name": "pIC50", "Observed measurement": 6.84}
{"Molecule": "O=c1c(C2=NS(=O)(=O)c3ccccc3N2)c(O)c2ccccc2n1NCc1ccccc1Br", "Property name": "pIC50", "Observed measurement": 6.33}
{"Molecule": "O=c1c(C2=NS(=O)(=O)c3ccccc3N2)c(O)c2ccccc2n1NC1=CCOC=C1", "Property name": "pIC50", "Observed measurement": 6.36}
{"Molecule": "CC(C)CCNn1c(=O)c(C2=NS(=O)(=O)c3ccccc3N2)c(O)c2ccccc21", "Property name": "pIC50", "Observed measurement": 6.87}
{"Molecule": "O=c1c(C2=NS(=O)(=O)c3ccccc3N2)c(O)c2ccccc2n1NC1CCC1", "Property name": "pIC50", "Observed measurement": 6.97}
{"Molecule": "CCCC(CC)Nn1c(=O)c(C2=NS(=O)(=O)c3ccccc3N2)c(O)c2ccccc21 (stereo unspecified)", "Property name": "pIC50", "Observed measurement": 6.41}
{"Molecule": "O=c1c(C2=NS(=O)(=O)c3ccccc3N2)c(O)c2ccccc2n1NCc1cccs1", "Property name": "pIC50", "Observed measurement": 6.90}
{"Molecule": "CCCCCNn1c(=O)c(C2=NS(=O)(=O)c3ccccc3N2)c(O)c2ccccc21", "Property name": "pIC50", "Observed measurement": 7.00}

Origin of the recorded values: ChEMBL document CHEMBL1955793
